The measurements presented in this section are drawn from ChEMBL document CHEMBL1145328.

In this section, each of the compounds is paired with its reported Ki.
Biological target: Replicase polyprotein 1a (Severe acute respiratory syndrome-related coronavirus, UniProt P0C6U8)
Report as a plain number; the unit nM is understood.

Some compounds with recorded Ki:
Memo: CCOC(=O)/C=C/[C@H](C[C@@H]1CCNC1=O)NC(=O)[C@H](CC(C)C)NC(=O)[C@@H](NC(=O)OCc1ccccc1)C(C)OC(C)(C)C (stereo not given in full) , reported Ki: 58

Quick note, Ki for `CCOC(=O)/C=C/[C@H](C[C@@H]1CCNC1=O)NC(=O)[C@H](Cc1ccccc1)NC(=O)[C@@H](NC(=O)OCc1ccccc1)C(C)C` landed at 2260

Notebook: CC(OC(C)(C)C)[C@H](NC(=O)OCc1ccccc1)C(=O)N[C@@H](CC1CCCCC1)C(=O)N[C@H](C=O)C[C@@H]1CCNC1=O (stereo not given in full) , Ki read as 53

Please find the next compound below.
Reported Ki of `CCOC(=O)/C=C/[C@H](C[C@@H]1CCNC1=O)NC(=O)[C@H](CC(C)C)NC(=O)[C@@H](NC(=O)OCc1ccccc1)C(C)C` : 660
